Record form. Attribute: IC50. Fill in for each entry.
Target: NSP14 ExoN (Severe acute respiratory syndrome coronavirus 2, UniProt P0DTD1)
Experiment: biochemical
Conditions: original (first) compound batches; read-out: pIC50, inhibition of NSP14 ExoN in biochemical activity assay (converted)

Query for NSP14 ExoN (Severe acute respiratory syndrome coronavirus 2, UniProt P0DTD1): what IC50 does the record show for Cc1csc(CNC(=O)c2cc[nH]n2)n1 [Compound 2, reference compound] ?
> 501 µM

What do we get for CC(C)c1csc(CNC(=O)c2cc(CNCC3CC3)[nH]n2)n1 ?
> 501 µM

What do we get for CC(=O)NCc1cc(C(=O)NCc2nc(C(C)C)cs2)n[nH]1 ?
> 501 µM

Every entry's value here was drawn from paper PMC13010326.
